Cited source: paper PMC10747453

test system: osteogenically differentiating human embryonic stem cells and fibroblasts; test: hESTo biostatistical prediction model (embryotoxicity class); conditions: hESTo, skeletal differentiation
Parameter measured: Embryotoxicity classification by the biostatistical model, in words

- Compound: "CCOC(N)=O [Urethane, urethane]"
  System name: "osteogenically differentiating human embryonic stem cells and fibroblasts"
  Recorded result: "non-embryotoxic"
- Compound: "c1ccc2cc3c(ccc4ccccc43)cc2c1 [Benz[a]anthracene, benz[a]anthracene]"
  System name: "osteogenically differentiating human embryonic stem cells and fibroblasts"
  Recorded result: "non-embryotoxic"

---

assay: hESTo MTT assay, hESC viability; settings: human
Counter-ions that a name gives are not always drawn.
We begin with a simple list: items and their reported IC50 at 20 days.

- Molecule: "CC1(C)S[C@@H]2[C@H](NC(=O)Cc3ccccc3)C(=O)N2[C@H]1C(=O)O [Penicillin G, penicillin G sodium salt, reference compound]"
  IC50 at 20 days: "> 1000 µg/mL"
- Molecule: "CN1CCC[C@H]1c1cccnc1"
  IC50 at 20 days: "> 1000 µg/mL"
- Molecule: "CCOC(N)=O"
  IC50 at 20 days: "> 1000 µg/mL"
